Data provenance is ChEMBL document CHEMBL5303711.

# EXPERIMENT SUMMARY: Cytotoxicity activity against human HepG2 cells assessed by CellTiter-Glo luminescent cell viability assay.
# Format: toxicity, cell-based
# Design: assay stage confirmatory assay, source tissue liver
# RUN PARAMETERS: HepG2 cells, read-out: IC50 relative
Calls of active or inactive are those of the source. No rule for the calls is given here.
OBSERVED PROPERTY: CC50

I am curious: what CC50 value has been reported for COCCCN[C@H]1CS(=O)(=O)C[C@@H]1S(=O)(=O)c1ccc(Cl)cc1 ?
16.7 µM (active)

Another compound to look at: Cc1ccc(NC(=O)c2nc(S(C)(=O)=O)ncc2Cl)cc1
4.1 µM (active)

Next compound: c1ccc(-c2cnn3c(-c4ccco4)ccnc23)cc1
0.5 µM (active)

What do you get for CCNC(=O)c1noc(-c2cc(C(C)C)c(O)cc2O)c1-c1ccc(CN2CCOCC2)cc1 ?
< 0.1 µM (active)

Now this one: CC(C)N1CCN(Cc2nc(Cn3ccn4nc(-c5ccccc5)cc4c3=O)no2)CC1
8.2 µM (active)

Proceed to CC1(C)CCCN(c2ccnc(N[C@H]3CCCOCC3)n2)C1
8 µM (active)

Try the compound NC(=O)c1ccc2[nH]c(-c3ccc(Oc4ccc(Cl)cc4)cc3)nc2c1
14.7 µM (inactive)

Entry COc1ccc(CCN2Cc3ccc(N)cc3C2)cc1 please
20.2 µM (inactive)

Repeat for the following compound: CCCC(=O)Nc1ccc(Nc2nc(C)cc(N3CCCC3)n2)cc1
5.7 µM (active)

For CCCCOc1ccc(-c2cc3c4nnc(CCC(=O)N5CCN(CC)CC5)n4ccn3n2)cc1 then?
4.2 µM (active)

###

# EXPERIMENT SUMMARY: Cytotoxicity activity against human HepG2 cells assessed by CellTiter-Glo luminescent cell viability assay.
# Format: toxicity, cell-based
# Set-up: assay stage confirmatory assay, source tissue liver
# RUN PARAMETERS: HepG2 cells, read-out: IC50 relative
The source made the active and inactive calls. The rule behind the calls is not given here.
Pick from Yes for active, No for inactive when you respond.

Examples from the recorded data:
- COMPOUND: "COc1cc2c(cc1Cc1cccc(Cl)c1F)c(=O)c(C(=O)O)cn2[C@H](CO)C(C)C"
  CAT: "Yes"
- COMPOUND: "O=C(Cn1ncc(Cl)c(Cl)c1=O)NCCC1=CCCCC1"
  CAT: "Yes"
- COMPOUND: "Cc1ccc(S(=O)(=O)c2cn(C)c3cc(N4CCN(C)CC4)c(F)cc3c2=O)cc1"
  CAT: "No"
- COMPOUND: "Oc1cccc2ccc(Nc3ccccn3)nc12"
  CAT: "Yes"
- COMPOUND: "CN(C)c1cccc(S(=O)(=O)Nc2ccc3ncccc3c2)c1"
  CAT: "Yes"

Which outcome was entered for the compound O=C(NCc1cccc(O)c1)Nc1nc(-c2ccncc2)cs1 in this test?
No

###

# EXPERIMENT SUMMARY: Cytotoxicity activity against human HepG2 cells assessed by CellTiter-Glo luminescent cell viability assay.
# Format: toxicity, cell-based
# Parameters: assay stage confirmatory assay, source tissue liver
# RUN PARAMETERS: HepG2 cells, read-out: IC50 relative
Where a name gives a salt, the structure may show the parent alone. The source made the active and inactive calls. The rule behind the calls is not given here.
Just give me one of these, please: t = active, f = inactive

Solved cases below.
- MOLECULE: "CC(=O)N1c2ccc(S(=O)(=O)N3CCC(C(=O)NCc4cccs4)CC3)cc2CC1C (stereo not given)"
  CAT: "f"
- MOLECULE: "CNCCCN1c2ccccc2CCc2ccccc21 [DESIPRAMINE HYDROCHLORIDE]"
  CAT: "t"
- MOLECULE: "COc1ccc(-c2cn3nc(N4CCC(C(=O)NCCN(C)C)CC4)sc3n2)cc1"
  CAT: "t"

What outcome does the record of this test show for CN1CCC(Nc2nc(Nc3ccc(Oc4ccccc4)cc3)c3c(=O)[nH]cc(Br)c3n2)CC1 ?
t

Record: O=C(NCCCN1CCC2(CC1)OCc1ccccc12)[C@H]1CCCN1Cc1ccccc1
t

###

# EXPERIMENT SUMMARY: Cytotoxicity activity against human HepG2 cells assessed by CellTiter-Glo luminescent cell viability assay.
# Format: toxicity, cell-based
# Set-up: assay stage confirmatory assay, source tissue liver
# RUN PARAMETERS: HepG2 cells, read-out: IC50 relative
Active and inactive are the calls of the source. No rule for the calls is given here.
OBSERVED PROPERTY: CC50

Use the examples below as a reference point.
- COMPOUND: "Cn1ncc2cc(-c3cnc(N)c(Cl)c3N3CCC4(CCNC4=O)CC3)ccc21"
  CC50: "5.7 µM (active)"
- COMPOUND: "CCOc1cccc(N2CCN(c3ncnc4c(F)cccc34)CC2)n1"
  CC50: "8.3 µM (active)"
- COMPOUND: "O=C1c2c(O)ccc(O)c2C(=O)c2c(NCCNCCO)ccc(NCCNCCO)c21"
  CC50: "0.8 µM (active)"
- COMPOUND: "CC(C)(C)c1cc(C=C(C#N)C#N)cc(C(C)(C)C)c1O"
  CC50: "0.8 µM (active)"

Please look at the following molecule next.
Look up CC50 for this molecule: Fc1cccc(OC2CCN(C[C@H]3[C@@H]4CNC[C@@H]43)CC2)c1
7.9 µM (active)

###

# EXPERIMENT SUMMARY: Cytotoxicity activity against human HepG2 cells assessed by CellTiter-Glo luminescent cell viability assay.
# Format: toxicity, cell-based
# Parameters: assay stage confirmatory assay, source tissue liver
# RUN PARAMETERS: HepG2 cells, read-out: IC50 relative
Counter-ions that a name gives are not always drawn. Active and inactive are the calls of the source. How the calls were made is not given here.
// allowed return values: Y = active, N = inactive

Please review the following examples before continuing.
- MOLECULE: "Cc1cc(-c2csc(NC(=O)c3coc(S(=O)(=O)N(C)C)c3)n2)c(C)o1"
  CAT: "N"
- MOLECULE: "Cc1n[nH]c(C)c1S(=O)(=O)N1CCCC(C(=O)Nc2ccc(Br)cc2)C1 (stereo unspecified)"
  CAT: "N"
- MOLECULE: "CN(C)CCCN(CCCN(C)C)CC1=CCC2CC1C2(C)C (stereo unspecified)"
  CAT: "Y"
- MOLECULE: "CN(C)C(=O)N[C@H]1CC[C@H](CCN2CCN(c3cccc(Cl)c3Cl)CC2)CC1 [CARIPRAZINE HYDROCHLORIDE]"
  CAT: "Y"
- MOLECULE: "Cc1ccc(-c2noc(-c3cccc(OCC(=O)N4CCN(C)CC4)c3)n2)cc1"
  CAT: "Y"

I would be grateful if you could indicate the recorded call for CS(=O)(=O)N1CCc2ccc(NC(=O)Nc3cccc(C#N)c3)cc21 .
Y

Next molecule up: CCOc1ncccc1C(=O)Nc1cc(F)ccc1F
Y

Then what about the molecule CC(C)(O)CC(=O)NCCn1ccc2ncnc(Nc3ccc(Oc4cccc(C(F)(F)F)c4)c(Cl)c3)c21 ?
Y

Same read-out for CC(=O)NCCc1ccc(C(=O)Cn2ncc(Cl)c(Cl)c2=O)s1 ?
Y

Now consider CN1CCC(c2c[nH]c3ccc(NC(=O)c4ccc(F)cc4)cc23)CC1 and answer again.
N

CC[C@@H]1[C@H](F)C(=O)N[C@@H]1COc1nccc2cc(C(N)=O)c(OC)cc12 ?
Y

Then what about the molecule COc1ccc(-c2noc(N3CCC(C(=O)N4CCN(c5ccccc5OC)CC4)CC3)n2)cc1 ?
Y

Another molecule to look at: CC1(C)N=C(N)N=C(N)N1c1ccc(Br)cc1
N

Now give it for COc1ccccc1OCC(=O)Nc1nc(-c2ccccn2)cs1 too.
Y

Repeat for the following molecule: CCCS(=O)(=O)N1CCc2ccc(NC(=O)Nc3cccc(C#N)c3)cc21
Y

Let us now turn to CCOc1ccccc1NC(=O)COc1cccc2c(=O)n(C)ccc12
N

And what about the molecule CC(C)(C)c1cc(C(C)(C)C)c(NC(=O)c2c[nH]c3ccccc3c2=O)cc1O ?
Y

###

# EXPERIMENT SUMMARY: Cytotoxicity activity against human HepG2 cells assessed by CellTiter-Glo luminescent cell viability assay.
# Format: toxicity, cell-based
# Set-up: assay stage confirmatory assay, source tissue liver
# RUN PARAMETERS: HepG2 cells, read-out: IC50 relative
Activity calls are given as the source filed them. The rule behind the calls is not given here.
Give one outcome, nothing more. List: TRUE for active, FALSE for inactive

Known results for compounds:
- COMPOUND: "Nc1nc(Nc2ccccc2F)nc2ccccc12"
  CAT: "TRUE"
- COMPOUND: "Cc1oc2c(c1C(=O)c1ccc(Cl)cc1)C(=O)C(=O)c1ccccc1-2"
  CAT: "FALSE"
- COMPOUND: "C[C@]12CC[C@H](O)CC1=CC[C@@H]1[C@@H]2CC[C@]2(C)C(n3cnc4ccccc43)=CC[C@@H]12 [GALETERONE]"
  CAT: "TRUE"
- COMPOUND: "COC(=O)C[C@@H]1N=C(c2ccc(Cl)cc2)c2c(sc(C)c2C)-n2c(C)nnc21"
  CAT: "TRUE"

Test call, this compound: O=C(Nc1cccnc1)N1CCN(c2ccc(S(=O)(=O)N3CCOCC3)cn2)CC1
TRUE

Proceed to COc1cc(CN2CCN(c3ccccc3C)CC2)ccc1O
TRUE

Same again, this time with C[C@@H](Oc1cc(-n2cnc3ccc(CN4CCN(C)CC4)cc32)sc1C(N)=O)c1ccccc1C(F)(F)F [GSK-461364]
TRUE

Let us now turn to CN(C)C1CCN(C(C)(C)CNCc2cccc(Cl)c2N)CC1
TRUE

Queued: CC(=O)Nc1cccc(NC(=O)c2cc3ccccc3cc2O)c1
FALSE

And for CCN(CC)CCN(C(C)=O)c1nc2cc(C)cc(C)c2s1 ?
TRUE
